# subject of test: Glycogen synthase kinase-3 beta (Homo sapiens, UniProt P49841)
# Sequence (P49841 whole entry): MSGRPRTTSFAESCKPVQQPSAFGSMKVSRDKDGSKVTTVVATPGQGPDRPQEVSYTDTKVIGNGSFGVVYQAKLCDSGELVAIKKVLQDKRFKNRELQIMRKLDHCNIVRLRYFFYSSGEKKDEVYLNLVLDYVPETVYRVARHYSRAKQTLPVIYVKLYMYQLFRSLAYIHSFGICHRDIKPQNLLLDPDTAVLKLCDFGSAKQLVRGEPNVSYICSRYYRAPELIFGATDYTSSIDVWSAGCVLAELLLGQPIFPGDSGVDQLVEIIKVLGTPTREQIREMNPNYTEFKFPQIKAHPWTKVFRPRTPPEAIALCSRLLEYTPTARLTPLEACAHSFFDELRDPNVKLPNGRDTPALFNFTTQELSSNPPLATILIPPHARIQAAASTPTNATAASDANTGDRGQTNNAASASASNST
# assay remarks: Inhibition of GSK-3beta (unknown origin)
pIC50: −log10 of the molar value.
Criterion: pIC50 meeting or surpassing 6. Met: criterion met. Not met: criterion not met.

Before answering, review these 7 worked examples.
Task: Can "Cn1cc(C2=C(c3coc4ccccc34)C(=O)NC2=O)c2cc(F)ccc21" be said to have pIC50 at or above 6?
Result: criterion met

Task: In plain terms: is recorded pIC50 at least 6 for "CC(C)Oc1cccc(-c2ccc3cnc(C(=O)NCC4CCOCC4)n3c2)c1" ?
Result: criterion met

Task: Given "O=C(CCl)c1cc(Cl)c(Cl)s1" , state whether its pIC50 is at least 6.
Result: criterion not met

Task: For this compound, is measured pIC50 6 or higher? CN(c1ncnc2[nH]c3cc(Cl)ccc3c12)C1CCCN(C(=O)CC#N)C1 (stereo not drawn)
Result: criterion not met

Task: Reported pIC50 at or above 6? "CC(C)Oc1cccc(-c2ccc3[nH]nc(C(=O)NCC4CCOCC4)c3c2)c1"
Result: criterion met

Task: For this compound, is measured pIC50 6 or higher? "Cc1ccc(C(=O)CCl)s1"
Result: criterion not met

Task: Tell me whether pIC50 is at least 6 here: C[S+]([O-])CCCCCCN=C=S (stereo not drawn)
Result: criterion not met

Continuing:
Task: Hi team, for "Nc1nccc(CNC(=O)c2ccc3c(c2)/C(=C/Cc2cccc(C(=O)O)c2)C(=O)N3)n1" , is the recorded pIC50 at or above 6?
Result: criterion met

====

# subject of test: Glycogen synthase kinase-3 beta (Homo sapiens)
# assay remarks: Inhibition of GSK3-beta (unknown origin) by Kinase-Glo Max assay kit
property: IC50
Report as: number unit

Task: Form entry - test system: Glycogen synthase kinase-3 beta (Homo sapiens); read-out: IC50; compound: "FC(F)(F)c1ccc(/C=N/Nc2nnc3n2N=C(c2ccc(Cl)cc2)CS3)cc1"
Result: 883 nM
